# PROTOCOL_TEXT: HepG2 cytotoxicity, primary screen, cytotoxicity control for P. falciparum antimalarial project, cell-based, ATP luminescence (AID 2303);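 note: 0% = DMSO wells and 100% = digitonin-killed cells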
# CONDITION_SET: HepG2 viability, 24-48 h, at 10 µM, active compounds read high
Active and inactive are the calls of the source.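 Rule for the calls: active = inhibition above 50%; inactive = the rest.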
READOUT_TYPE: inhibition

// solved cases for inhibition follow
Please report the recorded inhibition for CC(C)CCNC(=O)C1Cc2c([nH]c3ccc(Br)cc23)C2(CCN(CCc3ccccc3)CC2)N1 (stereo not given) .
25% (inactive)

Please report the recorded inhibition for `Cc1cc(N[C@@H](CC(C)C)C(=O)Nc2ccccc2)nc(Nc2ccccc2)n1` .
-2% (inactive)

Continuing:
Please report the recorded inhibition for `COc1ccc(NS(=O)(=O)c2ccc(C(=O)Nc3ccc(C(F)(F)F)cc3)cc2)cc1N1CCN(CC2CC2)CC1` .
15% (inactive)

Please report the recorded inhibition for `CO/C(=C\C=C\c1cc2cc(Cl)c(Cl)cc2[nH]1)C(=O)NCCN1CCCCC1` .
16% (inactive)

Please report the recorded inhibition for `Cc1ccc(CON2C(N)=NC(N)=NC2(C)C)cc1C` .
64% (active)

---

# PROTOCOL_TEXT: HepG2 cytotoxicity, primary screen, cytotoxicity control for P. falciparum antimalarial project, cell-based, ATP luminescence (AID 2303);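 note: 0% = DMSO wells and 100% = digitonin-killed cells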
# CONDITION_SET: HepG2 viability, 24-48 h, at 10 µM, active compounds read high
READOUT_TYPE: inhibition (%)
Please give a number only; it is taken to be in %.

Please report the recorded inhibition for `N=C(N)c1cccc(-c2cc(-c3cccc(C(=N)N)c3)on2)c1` .
8

Please report the recorded inhibition for COc1cccc(NC(=O)NC2CCN(c3ccnc(Nc4ccc(F)cc4)n3)C2)c1 (centres undefined) .
9

Please report the recorded inhibition for O=C(Nc1ccc(-c2nc3ccccc3[nH]2)cc1)C1CCCN(CC2CC2)C1 (centres undefined) .
6

Continuing:
Please report the recorded inhibition for `COc1cc(-c2nc(-c3ccccc3)c(-c3ccc(C(=O)c4ccc(F)cc4)cc3)[nH]2)cc(OC)c1O` .
0

Please report the recorded inhibition for `Cc1cc(-c2cccc3c(C(=O)N4CCc5cc6nccc(N7CCCN(C)CC7)c6cc54)cccc23)cc(C)n1` .
17

Please report the recorded inhibition for `CC(C)C[C@H](Nc1ccnc(NCC2CCCCC2)n1)C(=O)NCCOc1ccccc1` .
37

Please report the recorded inhibition for `CCOc1ccc(C(=O)Nc2cc(Br)c3c(c2)CNCC3)cc1C#N` .
17

Please report the recorded inhibition for `Cc1noc(C)c1S(=O)(=O)N(C)Cc1ccc(-c2ccc(Cl)cc2)o1` .
10

Please report the recorded inhibition for `CC(C)c1cn2c3c(cc(C(=O)N[C@@H](Cc4ccccc4)[C@H](O)CNC4CCCCC4)cc13)N(C)S(=O)(=O)CC2` .
9

---

# PROTOCOL_TEXT: inhibition of 3D7 malaria parasite growth – strain 3D7 (AID 2306);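 note: 0% = DMSO wells and 100% = chloroquine plus artemisinin control wells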
# CONDITION_SET: P. falciparum 3D7 erythrocytic growth, LDH absorbance, 72 h; at 2 µM; active compounds read high
READOUT_TYPE: growth inhibition (%)
Please give a number only; it is taken to be in %.

Please report the recorded growth inhibition for COc1ccc2nccc([C@@H](O)CN3CCC(NC(=O)C(c4ccsc4)N4CCN(c5ccccc5)CC4)CC3)c2c1 (stereo not given in full) .
95

Please report the recorded growth inhibition for `CC1CCN(c2nc(C(=O)NCCc3ccc(Cl)c(Cl)c3)c(C(C)C)s2)CC1` .
88

Please report the recorded growth inhibition for `Cc1ccc(NC(=O)c2ccc(N3CCN(c4ccncc4)CC3)cn2)cc1F` .
98

Continuing:
Please report the recorded growth inhibition for `COc1ccc(-c2ccc(NC(=O)c3ccc(Cl)cc3)cc2)cc1CN1CCC(O)CC1` .
89

Please report the recorded growth inhibition for `CCCCCc1cc(O)c2c(c1)OC(C)(C)C=C2C1=CCN(Cc2ccsc2)CC1` .
98

Please report the recorded growth inhibition for `O=C(Nc1ccc(Cl)cc1)c1ccc(CN2CCCN(Cc3cccc(Cl)c3)CC2)cc1` .
96

Please report the recorded growth inhibition for `O=C(N[C@H]1CCN(Cc2ccc(OC3CCN(Cc4ccccc4)CC3)cc2)C1)c1ccc(Cl)c(Cl)c1` .
90
